Target: Trypsin
Construct: IC50; other: Trypsin; Ki
Experiment: Trypsin inhibition, chromogenic substrate (Method C)
Type: biochemical
Conditions: Trypsin
pKi: −log10 of the molar value.
Readout Kind: pKi

Suppose we examine the molecule COCCC[C@H](NC(=O)[C@@H]1CCCN1C(=O)[C@@H](Cc1ccc(F)cc1)NC(=O)OCc1ccccc1)B(O)O [TRI 50f, Cbz-4-F-Phe-Pro-boroMpg-OH] ; what pKi value has been reported?
< 5.30

* * *

Target: Plasmin (Homo sapiens, UniProt P00747)
Sequence (P00747 581-810 limits assumed, species assumed): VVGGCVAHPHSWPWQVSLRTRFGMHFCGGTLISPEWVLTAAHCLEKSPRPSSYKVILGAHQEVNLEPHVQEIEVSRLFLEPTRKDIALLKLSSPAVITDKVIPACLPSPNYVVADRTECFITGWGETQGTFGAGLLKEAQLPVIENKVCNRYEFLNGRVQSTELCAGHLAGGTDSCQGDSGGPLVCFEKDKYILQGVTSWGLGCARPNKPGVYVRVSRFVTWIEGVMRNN
Sequence (P00747 97-580 partner limits assumed, species assumed): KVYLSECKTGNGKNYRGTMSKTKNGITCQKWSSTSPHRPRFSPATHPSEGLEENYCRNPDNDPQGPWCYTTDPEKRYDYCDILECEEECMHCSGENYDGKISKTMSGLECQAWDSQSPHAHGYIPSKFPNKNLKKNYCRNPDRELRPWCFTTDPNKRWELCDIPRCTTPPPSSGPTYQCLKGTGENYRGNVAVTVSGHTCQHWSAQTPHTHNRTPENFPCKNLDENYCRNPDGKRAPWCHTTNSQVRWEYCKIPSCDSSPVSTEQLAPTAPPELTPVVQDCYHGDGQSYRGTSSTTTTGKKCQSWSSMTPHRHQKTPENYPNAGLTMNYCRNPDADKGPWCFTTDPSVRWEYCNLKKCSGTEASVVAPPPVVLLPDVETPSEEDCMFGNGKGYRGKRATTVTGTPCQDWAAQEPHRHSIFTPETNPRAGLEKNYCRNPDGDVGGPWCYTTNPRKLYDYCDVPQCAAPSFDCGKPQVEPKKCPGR
pIC50: −log10 of the molar value.
Readout Kind: pIC50

// fetch Plasmin (Homo sapiens, UniProt P00747) pIC50 for COCCC[C@H](NC(=O)[C@@H]1CCCN1C(=O)[C@@H](Cc1ccc(F)cc1)NC(=O)OCc1ccccc1)B(O)O [TRI 50f, Cbz-4-F-Phe-Pro-boroMpg-OH]
< 4.00
